All figures here come from PubChem BioAssay AID588807.

# Test system: Kiaa1363
# protocol-summary: competitive ABPP of Abhd10 versus anti-targets – biochemical, fluorescence, gel-based, mouse proteome, selectivity assay for PME-1 inhibitor project, late-stage follow-up (AID 588807)
# reported-conditions: anti-target, at 10 µM, stronger effect = higher value
For each of the compounds below, state its inhibition.
Give a bare numeral; the unit % is implied.

Input: Name the recorded inhibition for COC(=O)N1C(=O)[C@](c2ccccc2)(C2CCCC2)N1C(=O)OC .
Output: 0

Input: # input compound: CCOC(=O)N1C(=O)[C@@](CC)(c2ccc(C)cc2)N1C(=O)OCC ; wanted: its inhibition
Output: 25

Input: I have this compound here, C=CCOC(=O)N1N(C(=O)OC)C(=O)[C@@]1(CC)c1ccccc1 , and I need its recorded inhibition.
Output: 55

Input: What value of inhibition has been recorded for this entry: CC[C@@]1(c2ccc(Cl)c(Cl)c2)C(=O)N(C(=O)OC(C)C)N1C(=O)OC(C)C
Output: 0

Input: Entry CC[C@@]1(c2cccc(OC)c2)C(=O)N(C(=O)OC)N1C(=O)OC has what inhibition?
Output: 0

Input: inhibition lookup needed for CCOC(=O)N1C(=O)[C@@](C)(c2cccc(C)c2)N1C(=O)OCC , thanks.
Output: 0

Input: Look up inhibition for this compound: CC[C@@]1(c2cccc(C)c2)C(=O)N(C(=O)OCC(Cl)(Cl)Cl)N1C(=O)OCC(Cl)(Cl)Cl
Output: 0

Input: // lookup inhibition for CC[C@@]1(c2cccc(Cl)c2)C(=O)N(C(=O)OC)N1C(=O)OC
Output: 20

Input: inhibition for CC[C@@]1(c2cccc(C)c2)C(=O)N(C(=O)OCc2ccccc2)N1C(=O)OCc1ccccc1 ?
Output: 75

Input: Need inhibition, item CC[C@@]1(c2cccc(Cl)c2)C(=O)N(C(=O)OC(C)C)N1C(=O)OC(C)C
Output: 75

Input: Bench note: what inhibition did CC[C@@]1(c2cccc(C)c2)C(=O)N(C(=O)OC)N1C(=O)OC show?
Output: 35

Input: So what's the measured inhibition for this one? CC[C@@]1(c2ccc(C)cc2)C(=O)N(C(=O)OC)N1C(=O)OC
Output: 15

Input: Could you tell me which inhibition is on file for CC[C@@]1(c2cccc(OC)c2)C(=O)N(C(=O)OC(C)C)N1C(=O)OC(C)C ?
Output: 0

Input: Quick one: inhibition for CC[C@@]1(c2ccc(OC)cc2)C(=O)N(C(=O)OC)N1C(=O)OC ?
Output: 0

Input: I have this compound here, CC[C@@]1(c2ccc(Cl)cc2)C(=O)N(C(=O)OC)N1C(=O)OC , and I need its recorded inhibition.
Output: 25

Input: Which inhibition is listed for CC[C@]1(c2ccc(C)cc2)C(=O)N(C(=O)OC(C)C)N1C(=O)OC(C)C ?
Output: 0

Input: Recorded inhibition for C=CCOC(=O)N1C(=O)[C@@](CC)(c2ccc(C)cc2)N1C(=O)OCC=C , please?
Output: 10

Input: What does the record list as inhibition for CC[C@]1(c2cccc(C)c2)C(=O)N(C(=O)OC)N1C(=O)OC ?
Output: 0

* * *

# experimental-target: Palmitoyl-protein thioesterase ABHD10, mitochondrial (Mus musculus)
# protocol-summary: competitive ABPP of Abhd10 versus anti-targets – biochemical, fluorescence, gel-based, mouse proteome, selectivity assay for PME-1 inhibitor project, late-stage follow-up (AID 588807)
# reported-conditions: at 10 µM
Active and inactive are the calls of the source. How the calls were made is not given here.
Result category, one only: active, inactive

Input: Hi, do you know how CCOC(=O)N1C(=O)[C@@](C)(c2cccc(C)c2)N1C(=O)OCC came out in this test?
Output: active

Input: Hey, what did the test say about CCCOC(=O)N1C(=O)C(CC)(c2cccc(C)c2)N1C(=O)OCCC (stereo unspecified) ?
Output: inactive

Input: Called result for CC[C@@]1(c2cccc(Cl)c2)C(=O)N(C(=O)OC)N1C(=O)OC
Output: inactive

Input: Which result was noted for this molecule in the test: CCCOC(=O)N1C(=O)[C@@](CC)(c2ccc(C)cc2)N1C(=O)OCCC
Output: active

Input: What is the recorded call for this molecule in the test? CC[C@]1(c2cccc(C)c2)C(=O)N(C(=O)OC(C)C)N1C(=O)OC(C)C
Output: inactive

Input: Can you look up the reported call for C=CCOC(=O)N1C(=O)[C@@](CC)(c2ccccc2)N1C(=O)OCC=C for me?
Output: inactive

* * *

# experimental-target: Monoacylglycerol lipase ABHD6 (Mus musculus) (UniProt Q8R2Y0)
# Sequence (Q8R2Y0 whole entry, looked up): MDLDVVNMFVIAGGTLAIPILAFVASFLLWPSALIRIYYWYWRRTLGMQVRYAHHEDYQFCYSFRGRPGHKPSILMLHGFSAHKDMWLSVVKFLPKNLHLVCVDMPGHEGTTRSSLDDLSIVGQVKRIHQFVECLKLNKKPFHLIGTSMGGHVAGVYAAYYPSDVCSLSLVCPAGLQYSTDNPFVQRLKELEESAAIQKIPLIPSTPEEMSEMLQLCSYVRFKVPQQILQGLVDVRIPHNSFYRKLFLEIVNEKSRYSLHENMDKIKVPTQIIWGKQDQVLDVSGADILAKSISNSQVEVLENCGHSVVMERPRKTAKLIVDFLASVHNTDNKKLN
# protocol-summary: competitive ABPP of Abhd10 versus anti-targets – biochemical, fluorescence, gel-based, mouse proteome, selectivity assay for PME-1 inhibitor project, late-stage follow-up (AID 588807)
# reported-conditions: anti-target, at 10 µM, stronger effect = higher value
Exercise: state measured inhibition for each of the compounds provided.
Express the result in % but write the number alone.

Input: Tell me the measured inhibition of CCOC(=O)N1C(=O)[C@@](CC)(c2cccc(C)c2)N1C(=O)OCC , please.
Output: 65

Input: Can you look up the measured inhibition of CCCOC(=O)N1C(=O)[C@@](CC)(c2ccc(C)cc2)N1C(=O)OCCC for me?
Output: 85

Input: Report inhibition for C=CCOC(=O)N1N(C(=O)OC)C(=O)[C@@]1(CC)c1ccccc1 please.
Output: 60

Input: inhibition lookup needed for CC[C@@]1(c2cccc(Cl)c2)C(=O)N(C(=O)OC(C)C)N1C(=O)OC(C)C , thanks.
Output: 70

* * *

# experimental-target: Palmitoyl-protein thioesterase ABHD10, mitochondrial (Mus musculus)
# protocol-summary: competitive ABPP of Abhd10 versus anti-targets – biochemical, fluorescence, gel-based, mouse proteome, selectivity assay for PME-1 inhibitor project, late-stage follow-up (AID 588807)
# reported-conditions: at 10 µM, stronger effect = higher value
result-type: inhibition (%)
Write the value in % as a bare number.

Input: Please report the recorded inhibition for CC[C@@]1(c2cccc(OC)c2)C(=O)N(C(=O)OC(C)C)N1C(=O)OC(C)C .
Output: 95

Input: Which inhibition reading was recorded for the compound C=CCOC(=O)N1N(C(=O)OC)C(=O)[C@@]1(CC)c1cccc(C)c1 ?
Output: 90

Input: Look up inhibition: C=CCOC(=O)N1C(=O)[C@@](CC)(c2ccc(C)cc2)N1C(=O)OCC=C
Output: 90

Input: # query: inhibition of entry CC[C@@]1(c2ccccc2C)C(=O)N(C(=O)OC)N1C(=O)OC
Output: 90

Input: I am curious: what inhibition value has been reported for Cc1cccc([C@]2(C)C(=O)N(C(=O)OC(C)C)N2C(=O)OC(C)C)c1 ?
Output: 100

Input: Which inhibition value belongs to CC[C@@]1(c2ccc(OC)cc2)C(=O)N(C(=O)OC)N1C(=O)OC ?
Output: 100

Input: Suppose we examine the compound CCOC(=O)N1C(=O)[C@@](CC)(c2ccccc2)N1C(=O)OCC ; what inhibition value has been reported?
Output: 100

Input: Dear colleague, I am looking for the recorded inhibition of the following compound: CC[C@@]1(c2cccc(C)c2)C(=O)N(C(=O)OC)N1C(=O)OC
Output: 100

Input: Field request: inhibition | item: CCOC(=O)N1C(=O)[C@@](CC)(c2ccc(C)cc2)N1C(=O)OCC
Output: 100

Input: # input compound: CC[C@@]1(c2ccc(OC)cc2)C(=O)N(C(=O)OC(C)C)N1C(=O)OC(C)C ; wanted: its inhibition
Output: 100

* * *

# experimental-target: Palmitoyl-protein thioesterase ABHD10, mitochondrial (Mus musculus) (UniProt Q6PE15)
# Sequence (Q6PE15 whole entry, looked up): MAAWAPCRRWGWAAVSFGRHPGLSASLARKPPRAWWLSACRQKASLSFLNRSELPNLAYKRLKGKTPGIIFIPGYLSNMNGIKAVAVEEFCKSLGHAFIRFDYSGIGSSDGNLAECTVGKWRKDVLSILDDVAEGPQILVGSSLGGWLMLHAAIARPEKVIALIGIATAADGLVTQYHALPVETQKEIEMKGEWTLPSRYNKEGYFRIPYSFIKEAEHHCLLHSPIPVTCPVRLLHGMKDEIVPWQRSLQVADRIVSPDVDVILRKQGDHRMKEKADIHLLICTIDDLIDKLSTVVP
# protocol-summary: competitive ABPP of Abhd10 versus anti-targets – biochemical, fluorescence, gel-based, mouse proteome, selectivity assay for PME-1 inhibitor project, late-stage follow-up (AID 588807)
# reported-conditions: inhibition, at 1 µM, stronger effect = higher value
Task for the reader: assign each of the following compounds its reported inhibition.
Form entry: value (%) — number only.

Input: Data request, read-out inhibition, for CC[C@@]1(c2cccc(OC)c2)C(=O)N(C(=O)OC)N1C(=O)OC
Output: 65

Input: Form field: reported inhibition of CC[C@@]1(c2cccc(C)c2)C(=O)N(C(=O)OC)N1C(=O)OC(C)C
Output: 95

Input: Can you share its inhibition? I mean this compound: CCOC(=O)N1C(=O)[C@@](C)(c2cccc(C)c2)N1C(=O)OCC
Output: 80

Input: Record request: inhibition value, item CC[C@@]1(c2ccc(OC)cc2)C(=O)N(C(=O)OC(C)C)N1C(=O)OC(C)C
Output: 95

Input: Value lookup for inhibition; key = CC[C@]1(c2cccc(C)c2)C(=O)N(C(=O)OC(C)C)N1C(=O)OC(C)C
Output: 30

Input: Please look up its inhibition: CCOC(=O)N1C(=O)[C@@](CC)(c2ccccc2)N1C(=O)OCC
Output: 100

Input: Name the reported inhibition value associated with the compound CCOC(=O)N1C(=O)[C@@](CC)(c2ccc(C)cc2)N1C(=O)OCC
Output: 95

Input: Entry under review: CC[C@@]1(c2cccc(F)c2)C(=O)N(C(=O)OC)N1C(=O)OC . Reported inhibition?
Output: 95

Input: So what does the record say about inhibition for CC[C@@]1(c2cccc(F)c2)C(=O)N(C(=O)OC(C)C)N1C(=O)OC(C)C ?
Output: 85
